targetOrTestSystem: PPARγ (Homo sapiens, UniProt P37231)
Construct: expressed in transfected cells; host or cells: COS-7 cells
Sequence (P37231 238-503 limits assumed): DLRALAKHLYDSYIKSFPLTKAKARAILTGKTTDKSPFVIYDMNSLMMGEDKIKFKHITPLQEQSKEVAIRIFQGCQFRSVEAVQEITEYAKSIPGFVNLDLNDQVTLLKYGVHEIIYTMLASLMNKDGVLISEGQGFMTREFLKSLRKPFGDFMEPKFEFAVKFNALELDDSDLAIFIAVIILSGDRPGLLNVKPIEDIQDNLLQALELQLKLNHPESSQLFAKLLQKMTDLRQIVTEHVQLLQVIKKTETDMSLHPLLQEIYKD
assayMethodText: PPARγ/Gal4 transactivation system in COS-7 cells
Format: cell-based
details: 1 μM, 24 hours
In this section, each of the compounds is paired with its reported Induction factor.
I only need the number, thanks.

The examples below pair each entry with its known result.
The measured Induction factor associated with Cc1cc(/C=C/C(=O)c2c(C)c(C)c(C)c(C)c2C)cc(C)c1OC(C)(C)C(=O)O [compound 31] reads 7.05

The measured Induction factor associated with Cc1cc(/C=C/C(=O)c2ccc(Oc3ccccc3)cc2)cc(C)c1OC(C)(C)C(=O)O [compound 33] reads 6.93

***
The measured Induction factor associated with Cc1cc(/C=C/C(=O)c2ccc(OCCSC3CCCCC3)cc2)cc(C)c1OC(C)(C)C(=O)O [compound 23] reads 7.24

The measured Induction factor associated with CSc1c(C)cc(C(=O)/C=C/c2cc(C)c(OC(C)(C)C(=O)O)c(C)c2)cc1C [compound 13] reads 4.03

---

Test system: Apo E2/E2 transgenic mice
assayMethodText: Effects on triglyceride and cholesterol metabolism in Apo E2/E2 transgenic mice
Format: in vivo
details: gavage, 50 mg/kg/day, seven days
Protocol: FIGS. 19a, 19b, 19c, 19d, 20a, 20b, 20c and 20d illustrate the effects of treatment with compound 2 (Cpd2), compound 13 (Cpd13), compound 33 (Cpd33) and compound 39 (Cpd39) on triglyceride and cholesterol metabolism in Apo E2/E2 transgenic mice treated by gavage with the compound at a dose of 50 mg/kg/day, for seven days. Apo E2/E2 transgenic mice were housed in a 12-hour light/dark cycle at a constant temperature of 20±3° C. […]
assayMetric: plasma triglycerides

The measured plasma triglycerides associated with CSc1c(C)cc(C(=O)/C=C/c2cc(C)c(OC(C)(C)C(=O)O)c(C)c2)cc1C reads decrease

The measured plasma triglycerides associated with CCCCCSCCOc1ccc(C(=O)/C=C/c2cc(C)c(OC(C)(C)C(=O)O)c(C)c2)cc1 reads decrease

The measured plasma triglycerides associated with CCCCCCSc1c(C)cc(C(=O)/C=C/c2cc(C)c(OC(C)(C)C(=O)O)c(C)c2)cc1C reads decrease

The measured plasma triglycerides associated with Cc1cc(/C=C/C(=O)c2ccc(Oc3ccccc3)cc2)cc(C)c1OC(C)(C)C(=O)O reads decrease

---

targetOrTestSystem: PPARγ (Homo sapiens, UniProt P37231)
Construct: expressed in transfected cells; host or cells: COS-7 cells
assayMethodText: PPARγ/Gal4 transactivation system in COS-7 cells
Type: cell-based
details: 1 μM, 24 hours
In this section, each of the compounds is paired with its reported Induction factor.
I only need the number, thanks.

The examples below pair each entry with its known result.
The measured Induction factor associated with CSc1ccc(C(=O)/C=C/c2cc(Br)c(OC(C)(C)C(=O)O)c(Br)c2)cc1 reads 2.13

The measured Induction factor associated with CCCCCCSc1c(C)cc(C(=O)/C=C/c2cc(C)c(OC(C)(C)C(=O)O)c(C)c2)cc1C reads 4.78

The measured Induction factor associated with Cc1cc(/C=C/C(=O)c2ccc(OCCCCCC3CCSS3)cc2)cc(C)c1OC(C)(C)C(=O)O (racemic) reads 4.12

Consider the record given below.
The measured Induction factor associated with Cc1cc(C(=O)/C=C/c2cc(C)c(OC(C)(C)C(=O)O)c(C)c2)cc(C)c1O reads 2.00
